# key: entry, value: GI50
# Tested on: KM12
# ASSAY METHOD TEXT: NCI tumour cell line growth inhibition, 48 h
The source made the active and inactive calls. Cut-off read from the data, not from the text of the source: active = GI50 up to about 1.1 µM and inactive = higher.

- COMPOUND: "C#CCOC(=O)c1ccc(OC(C)=O)cc1"
  GI50: "> 100 µM (inactive)"
- COMPOUND: "COC(=O)c1c(C)[n+]([O-])c2cc(Cl)c(Cl)cc2[n+]1[O-]"
  GI50: "11.2 µM (inactive)"
- COMPOUND: "Cc1cc(N(CCC#N)S(=O)(=O)c2ccccc2)ccc1C=O"
  GI50: "> 100 µM (inactive)"
- COMPOUND: "COc1cc2c(cc1OC)CC(N=[N+]=[N-])c1cc(OC)c(OC)cc1/C=C\\2 (configuration not stated)"
  GI50: "30.2 µM (inactive)"
- COMPOUND: "CN1CCN(CCCN2c3ccccc3Sc3ccc(C(F)(F)F)cc32)CC1"
  GI50: "5.14 µM (inactive)"
- COMPOUND: "CN(C)Cc1nsc(N(C)C)n1"
  GI50: "> 100 µM (inactive)"
- COMPOUND: "COC(C/C=C\\C=C\\CC/C=C/CC(C)/C=C/C(=C\\C(=O)O)CC(=O)O)/C(C)=C\\C=C(/C)C(=O)O (configuration not stated)"
  GI50: "> 100 µM (inactive)"
- COMPOUND: "CCCCCC(=O)Nc1[nH]nnc1C#N"
  GI50: "> 100 µM (inactive)"
- COMPOUND: "C[C@]12CCC3[C@@H](CC[C@@H]4c5nonc5CC[C@]34C)C1CCC(=O)N2 (some centres not stated)"
  GI50: "> 100 µM (inactive)"
- COMPOUND: "Cn1c2ccccc2c2[nH]cc3nc4ccccc4c-3c21"
  GI50: "17 µM (inactive)"
- COMPOUND: "COc1ccc(C(=O)C(C(=O)C(=O)Nc2nccs2)c2ccc(OC)cc2)cc1 (configuration not stated)"
  GI50: "> 100 µM (inactive)"
- COMPOUND: "O=C(CC(=O)c1cccc2ccccc12)C(=O)Nc1nccs1"
  GI50: "> 100 µM (inactive)"
- COMPOUND: "CN1C(NN)=NS(=O)(=O)c2ccccc21"
  GI50: "> 100 µM (inactive)"
- COMPOUND: "Cc1ccc(C)c(NC(=O)C(=O)CC(=O)c2cccc3ccccc23)c1"
  GI50: "> 100 µM (inactive)"
- COMPOUND: "COc1ccc(C2S/C(=C\\c3cccc([N+](=O)[O-])c3)C(=O)N2NC(=O)Cc2ccccc2)cc1 (configuration not stated)"
  GI50: "> 100 µM (inactive)"
- COMPOUND: "O=P1(NCCCl)OCCCN1CCCl (configuration not stated) [IFOSFAMIDE]"
  GI50: "406 µM (inactive)"
- COMPOUND: "Cc1cc(C)c(-n2c(C)c(C)c(C#N)c2N)c(C)c1"
  GI50: "36.1 µM (inactive)"
- COMPOUND: "Cc1cc(=O)oc2cc(O)c(CN(C)CC(=O)O)cc12"
  GI50: "> 100 µM (inactive)"
- COMPOUND: "CCCCOc1ccc(/C=C/C2=[N+](CCO)CCO2)cc1"
  GI50: "34 µM (inactive)"
- COMPOUND: "C[C@@H]1O[C@@H]2OCC[C@@H]2C2=C1C(=O)c1ccccc1C2=O"
  GI50: "15.2 µM (inactive)"
- COMPOUND: "CC1=CCC[C@@]2(C)C(CC[C@@H]2C(C)/C=C/C(C)C)c2ccc(cc2C(=O)O)C[C@@H](O)CC1 (some centres not stated)"
  GI50: "11 µM (inactive)"
- COMPOUND: "COC(=O)CSC(=S)Nc1nnc(NC(=S)SCOC(C)=O)n1C(=S)SCC(=O)OC"
  GI50: "> 100 µM (inactive)"
